Would you kindly list mortality at 100000 µM for each of these compounds?
# protocol: In vivo percent mortality of cyclodiene resistant allele-homozygous CO fleas at 100 mM was determined using contact assay
# Type: ADME, organism-based
# experimental_context: Pulicinae
All answers are understood in %, so give the number only.

query: mortality at 100000 µM lookup needed for `CSc1cc(N)n(-c2c(Cl)cc(C(F)(F)F)cc2Cl)n1` , thanks.
result: 4.4

query: Which mortality at 100000 µM value belongs to `CSc1nn(-c2c(Cl)cc(C(F)(F)F)cc2Cl)c(N)c1-c1ccc2c(c1)OCO2` ?
result: 1.4

query: Dear colleague, I am looking for the recorded mortality at 100000 µM of the following compound: `CSc1nn(-c2c(Cl)cc(C(F)(F)F)cc2Cl)c(N)c1-c1nc(C)no1`
result: 0

query: Bench note: what mortality at 100000 µM did `CSc1nn(-c2c(Cl)cc(C(F)(F)F)cc2Cl)c(N)c1-c1cnccn1` show?
result: 77.4

query: // returns reported mortality at 100000 µM for input `C#Cc1c(SC)nn(-c2c(Cl)cc(C(F)(F)F)cc2Cl)c1N`
result: 2.2

###

# study_target: GABA-A receptor; anion channel (Mus musculus) (UniProt Q8BHJ7+P26048+Q8QZW7+P50571+Q9R0Y8+P22723+A2AMW3+P62812+Q9JLF1+P26049+P22933+Q9D6F4+P63080+P27681+P16305)
# protocol: Ratio of binding affinity for mouse brain Gamma-aminobutyric acid receptor and housefly Gamma-aminobutyric acid receptor
Think of 70 as a floor: if Selectivity stands on it or above, it is Met; beneath it, Not met.

query: Quick check: does `CSc1nn(-c2c(Cl)cc(C(F)(F)F)cc2Cl)c(N)c1-c1ccc(C)cc1` have Selectivity greater than or equal to 70?
result: Not met

query: API: above_or_equal(metric=Selectivity, cutoff=70) for item `COc1ccc(-c2c(SC)nn(-c3c(Cl)cc(C(F)(F)F)cc3Cl)c2N)cc1`
result: Met

query: Evaluate `CSc1nn(-c2c(Cl)cc(C(F)(F)F)cc2Cl)c(N)c1-c1nc(C)no1` : Selectivity at minimum 70?
result: Not met

query: Is the recorded value of Selectivity equal to or greater than 70 for this compound? `CSc1nn(-c2c(Cl)cc(C(F)(F)F)cc2Cl)c(N)c1-c1ccc(C(C)=O)s1`
result: Not met

query: Does the reported Selectivity for `COc1ccc(-c2c(SC)nn(-c3c(Cl)cc(C(F)(F)F)cc3Cl)c2N)c(OC)c1` fall at or above the 70 mark?
result: Not met

query: Item `CSc1nn(-c2c(Cl)cc(C(F)(F)F)cc2Cl)c(N)c1I` with Selectivity of 70 or above?
result: Not met

query: Would you say `CSc1cc(N)n(-c2c(Cl)cc(C(F)(F)F)cc2Cl)n1` shows Selectivity at minimum 70?
result: Met

query: Hi, just wondering whether `CSc1nn(-c2c(Cl)cc(C(F)(F)F)cc2Cl)c(N)c1-c1cccc(C(F)(F)F)c1` shows Selectivity of 70 or higher.
result: Not met

query: Does Selectivity meet or surpass 70 for `C#Cc1c(SC)nn(-c2c(Cl)cc(C(F)(F)F)cc2Cl)c1N` ?
result: Met

query: Say whether `CSc1nn(-c2c(Cl)cc(C(F)(F)F)cc2Cl)c(N)c1-c1ccc2c(c1)OCO2` shows Selectivity of 70 or more.
result: Not met

query: Reported Selectivity reaches at least 70 for `CSc1nn(-c2c(Cl)cc(C(F)(F)F)cc2Cl)c(N)c1C(=O)O` ?
result: Not met

query: In plain terms: is recorded Selectivity at least 70 for `CSc1nn(-c2c(Cl)cc(C(F)(F)F)cc2Cl)c(N)c1-c1ccc(C#N)cc1` ?
result: Met

query: Say whether `CSc1nn(-c2c(Cl)cc(C(F)(F)F)cc2Cl)c(N)c1-c1ccc(F)c(Cl)c1` shows Selectivity of 70 or more.
result: Not met

query: Hi team, for `COc1ccc(-c2c(SC)nn(-c3c(Cl)cc(C(F)(F)F)cc3Cl)c2N)cc1OC` , is the recorded Selectivity at or above 70?
result: Met

query: State whether the measured Selectivity reaches 70, counting equality as reaching it, for `CSc1nn(-c2c(Cl)cc(C(F)(F)F)cc2Cl)c(N)c1-c1ccccc1`
result: Not met

query: Check if Selectivity >= 70 (inclusive). Item: `CSc1nn(-c2c(Cl)cc(C(F)(F)F)cc2Cl)c(N)c1-c1ccccc1C(F)(F)F`
result: Met

query: Does `CSc1nn(-c2c(Cl)cc(C(F)(F)F)cc2Cl)c(N)c1Br` have a reported Selectivity of at least 70?
result: Met

query: Given the entry `CSc1nn(-c2c(Cl)cc(C(F)(F)F)cc2Cl)c(N)c1-c1ccc(F)cc1` , answer whether its Selectivity meets or surpasses 70.
result: Not met

query: API: above_or_equal(metric=Selectivity, cutoff=70) for item `CSc1nn(-c2c(Cl)cc(C(F)(F)F)cc2Cl)c(N)c1-c1cccc(Cl)c1`
result: Not met
